# assay_target: B-Raf delta1-415 (Homo sapiens, UniProt P15056)
# Sequence (P15056 416-766): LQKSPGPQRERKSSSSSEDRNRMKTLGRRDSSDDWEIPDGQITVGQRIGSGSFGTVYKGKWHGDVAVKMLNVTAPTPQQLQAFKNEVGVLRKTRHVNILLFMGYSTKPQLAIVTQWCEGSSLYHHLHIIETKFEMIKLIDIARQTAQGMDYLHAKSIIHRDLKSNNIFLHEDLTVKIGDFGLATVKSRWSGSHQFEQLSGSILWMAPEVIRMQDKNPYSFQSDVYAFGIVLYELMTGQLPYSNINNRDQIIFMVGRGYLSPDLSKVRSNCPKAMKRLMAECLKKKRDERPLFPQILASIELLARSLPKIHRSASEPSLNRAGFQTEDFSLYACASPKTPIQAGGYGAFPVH
# assay_details: B-Raf kinase inhibition (MAPH filter plate, 33P-ATP, MEK1 substrate)
# experimental_context: read-out: Biochemical IC50 B-Raf
recorded_metric: IC50

smiles_entry=COn1c(=O)c(C(=O)Nc2ccccc2)cc2cnc(Nc3ccccc3)nc21 recorded_metric=IC50 experimental_value="> 10000 nM"
smiles_entry=O=c1c(-c2c(F)cccc2Cl)cc2cnc(Nc3ccc(N4CCOCC4)cc3)nc2n1OC[C@H](O)CO recorded_metric=IC50 experimental_value="< 100 nM"
smiles_entry=COn1c(=O)c(-c2c(Cl)cccc2Cl)cc2cnc(NCc3cccnc3)nc21 recorded_metric=IC50 experimental_value="< 500 nM"
smiles_entry=CC(C)N1CCN(c2ccc(Nc3ncc4cc(-c5c(Cl)cccc5Cl)c(=O)n(OCC5CCOCC5)c4n3)cc2)CC1 recorded_metric=IC50 experimental_value="< 500 nM"
smiles_entry=COCCOn1c(=O)c(-c2c(Cl)cccc2Cl)cc2cnc(Nc3cccc(OC)c3)nc21 recorded_metric=IC50 experimental_value="< 500 nM"
smiles_entry=COn1c(=O)c(-c2ccc(Cl)c(Cl)c2)cc2cnc(Nc3cccc(S(N)(=O)=O)c3)nc21 recorded_metric=IC50 experimental_value="< 500 nM"
smiles_entry=COc1cc(Nc2ncc3cc(-c4c(F)cccc4Cl)c(=O)n(OC)c3n2)ccc1N1CCNCC1 recorded_metric=IC50 experimental_value="< 100 nM"
smiles_entry=CN1CCN(c2ccc(Nc3ncc4cc(-c5c(F)cccc5Cl)c(=O)n(OCC5CC5)c4n3)cc2)CC1 recorded_metric=IC50 experimental_value="< 100 nM"
smiles_entry=CCN(CC)CCNC(=O)c1cc(Nc2ncc3cc(-c4c(C)cccc4C)c(=O)n(OC)c3n2)cn1C recorded_metric=IC50 experimental_value="< 500 nM"
smiles_entry=COCCNc1ncc2cc(-c3cc(NC(=O)c4ccccc4)ccc3Cl)c(=O)n(OC)c2n1 recorded_metric=IC50 experimental_value="< 500 nM"
smiles_entry=COn1c(=O)c(-c2c(Cl)cccc2Cl)cc2cnc(Nc3ccc(C#N)cc3)nc21 recorded_metric=IC50 experimental_value="< 1000 nM"
smiles_entry=O=c1c(-c2c(Cl)cccc2Cl)cc2cnc(Nc3ccccc3)nc2n1OCC1CCOCC1 recorded_metric=IC50 experimental_value="< 500 nM"
smiles_entry=COn1c(=O)c(-c2c(Cl)cccc2Cl)cc2cnc(Nc3ccc(CN4CC[C@H](O)C4)cc3)nc21 recorded_metric=IC50 experimental_value="< 100 nM"
smiles_entry=COn1c(=O)c(-c2c(Cl)cccc2Cl)cc2cnc(Nc3ccc(N4CCCC4)cc3)nc21 recorded_metric=IC50 experimental_value="< 500 nM"
smiles_entry=COn1c(=O)c(-c2cc(NC(=O)c3ccccc3)ccc2Cl)cc2cnc(Nc3ccccc3)nc21 recorded_metric=IC50 experimental_value="< 500 nM"
smiles_entry=COn1c(=O)c(-c2c(Cl)cccc2Cl)cc2cnc(Nc3ccc(CN4CCCC4)cc3)nc21 recorded_metric=IC50 experimental_value="< 100 nM"

###

# assay_target: B-Raf delta1-415 (Homo sapiens, UniProt P15056)
# assay_details: B-Raf kinase inhibition (MAPH filter plate, 33P-ATP, MEK1 substrate)
# experimental_context: read-out: Biochemical IC50 B-Raf
# Excerpt: We characterized the in vitro inhibitory activity against protein kinases of compounds of the present invention by determining their IC50 values (see Table 2). Kinase: B-Raf delta1-415 (e.g., Upstate Cat. No. 14-530) Reaction Temperature: room temperature Assay Plate: 96 well U bottom plate (Greiner, 650161) MultiScreen-PH Plate: 96 well MAPH Filter Plates (Millipore, MAPHNOB50) […] Kinase: Kinase conc. yielding 50% substrate turnover as determined in titration experiment. […]
recorded_metric: IC50

smiles_entry=COC(=O)c1cc(Nc2ncc3cc(-c4c(C)cccc4C)c(=O)n(OC)c3n2)cn1C experimental_value="< 500 nM"
smiles_entry=NCCCOn1c(=O)c(-c2c(Cl)cccc2Cl)cc2cnc(Nc3ccccc3)nc21 experimental_value="< 500 nM"
smiles_entry=CCN1CCN(c2ccc(Nc3ncc4cc(-c5c(Cl)cccc5Cl)c(=O)n(OC)c4n3)cc2)CC1 experimental_value="< 500 nM"
smiles_entry=CN1CCN(c2ccc(Nc3ncc4cc(-c5c(F)cccc5Cl)c(=O)n(O)c4n3)cc2)CC1 experimental_value="< 500 nM"

###

# assay_target: B-Raf delta1-415 (Homo sapiens, UniProt P15056)
# assay_details: B-Raf kinase inhibition (MAPH filter plate, 33P-ATP, MEK1 substrate)
# experimental_context: read-out: Biochemical IC50 B-Raf
The compounds listed here are annotated with their IC50.
recorded_metric: IC50

compound="COn1c(=O)c(-c2ccc(Cl)c(Cl)c2)cc2cnc(Nc3ccc(N4CCN(C)CC4)cc3)nc21 [Compound 18]" assay_target="B-Raf delta1-415 (Homo sapiens, UniProt P15056)" recorded_metric=IC50 experimental_value="< 1000 nM"
compound="COn1c(=O)c(-c2c(Cl)cccc2Cl)cc2cnc(Nc3cc[nH]n3)nc21 [Compound 88]" assay_target="B-Raf delta1-415 (Homo sapiens, UniProt P15056)" recorded_metric=IC50 experimental_value="< 500 nM"
compound="COn1c(=O)c(-c2c(Cl)cccc2Cl)cc2cnc(Nc3ccc(Cc4n[nH]c(C)n4)cc3)nc21 [Compound 151]" assay_target="B-Raf delta1-415 (Homo sapiens, UniProt P15056)" recorded_metric=IC50 experimental_value="< 500 nM"
compound="CC(C)On1c(=O)c(-c2ccccc2Cl)cc2cnc(Nc3ccccc3)nc21 [Compound 65]" assay_target="B-Raf delta1-415 (Homo sapiens, UniProt P15056)" recorded_metric=IC50 experimental_value="> 10000 nM"
compound="COCCOn1c(=O)c(-c2c(Cl)cccc2Cl)cc2cnc(Nc3ccc(N4CCNCC4)cc3)nc21 [Compound 195]" assay_target="B-Raf delta1-415 (Homo sapiens, UniProt P15056)" recorded_metric=IC50 experimental_value="< 500 nM"
compound="COc1cccc(Nc2ncc3cc(-c4c(F)cccc4Cl)c(=O)n(OC[C@H](O)CO)c3n2)c1 [Compound 76]" assay_target="B-Raf delta1-415 (Homo sapiens, UniProt P15056)" recorded_metric=IC50 experimental_value="< 500 nM"
compound="O=c1ccc2cnc(Nc3ccc(N4CCOCC4)cc3)nc2n1OC1CCCC1 [Compound 226]" assay_target="B-Raf delta1-415 (Homo sapiens, UniProt P15056)" recorded_metric=IC50 experimental_value="> 1000 nM"
compound="COn1c(=O)c(-c2c(Cl)cccc2Cl)cc2cnc(Nc3cc(C(=O)N4CCN(C)CC4)n(C)c3)nc21 [Compound 163]" assay_target="B-Raf delta1-415 (Homo sapiens, UniProt P15056)" recorded_metric=IC50 experimental_value="< 500 nM"

###

The compounds listed here are annotated with their IC50.
# assay_target: C-Raf Raf-1 (truncated), active (Homo sapiens, UniProt P04049, Y340D/Y341D)
# Sequence (P04049 306-648 Y340D/Y341D): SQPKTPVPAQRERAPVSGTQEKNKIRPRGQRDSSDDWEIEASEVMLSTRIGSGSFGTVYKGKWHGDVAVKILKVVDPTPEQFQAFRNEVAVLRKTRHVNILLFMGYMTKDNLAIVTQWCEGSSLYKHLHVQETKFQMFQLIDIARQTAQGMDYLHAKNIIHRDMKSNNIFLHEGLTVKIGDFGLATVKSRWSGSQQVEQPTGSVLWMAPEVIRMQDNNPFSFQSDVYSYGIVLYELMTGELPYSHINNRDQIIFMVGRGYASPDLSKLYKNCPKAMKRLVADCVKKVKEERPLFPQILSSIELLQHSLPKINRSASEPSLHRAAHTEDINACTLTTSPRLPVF
# assay_details: C-Raf kinase inhibition (MAPH assay / IMAP assay)
# experimental_context: read-out: Biochemical IC50 C-Raf
recorded_metric: IC50

compound="COn1c(=O)c(C(=O)Nc2ccccc2)cc2cnc(Nc3ccccc3)nc21 [Compound 61]" assay_target="C-Raf Raf-1 (truncated), active (Homo sapiens, UniProt P04049, Y340D/Y341D)" experimental_value="> 10000 nM"
compound="COn1c(=O)c(-c2c(Cl)cccc2Cl)cc2cnc(Nc3cccc(SC)c3)nc21 [Compound 2]" assay_target="C-Raf Raf-1 (truncated), active (Homo sapiens, UniProt P04049, Y340D/Y341D)" experimental_value="< 500 nM"
compound="COn1c(=O)c(-c2cccc(NC(=O)c3ccccc3)c2Cl)cc2cnc(Nc3ccccc3)nc21 [Compound 28]" assay_target="C-Raf Raf-1 (truncated), active (Homo sapiens, UniProt P04049, Y340D/Y341D)" experimental_value="< 100 nM"
compound="COn1c(=O)c(-c2c(Cl)cccc2Cl)cc2cnc(Nc3ccncc3)nc21 [Compound 13]" assay_target="C-Raf Raf-1 (truncated), active (Homo sapiens, UniProt P04049, Y340D/Y341D)" experimental_value="< 100 nM"
compound="O=c1c(-c2ccccc2Cl)cc2cnc(Nc3ccccc3)nc2n1OCC1CC1 [Compound 49]" assay_target="C-Raf Raf-1 (truncated), active (Homo sapiens, UniProt P04049, Y340D/Y341D)" experimental_value="< 100 nM"

###

The molecules listed here are annotated with their pIC50.
# assay_target: B-Raf delta1-415 (Homo sapiens)
# assay_details: B-Raf kinase inhibition (MAPH filter plate, 33P-ATP, MEK1 substrate)
# experimental_context: read-out: Biochemical IC50 B-Raf
pIC50: −log10 of the molar value.
recorded_metric: pIC50

smiles_entry=COn1c(=O)c(-c2c(F)cccc2Cl)cc2cnc(Nc3cc(C(=O)N(C)CCOC(=O)c4cccnc4)n(C)c3)nc21 assay_target="B-Raf delta1-415 (Homo sapiens)" experimental_value="> 6.30"
smiles_entry=COn1c(=O)c(-c2c(Cl)cccc2Cl)cc2cnc(Nc3cc(C(=O)NCCN4CCCC4)n(C)c3)nc21 assay_target="B-Raf delta1-415 (Homo sapiens)" experimental_value="> 6.30"
smiles_entry=COn1c(=O)c(-c2c(Cl)cccc2Cl)cc2cnc(Nc3ccc(OCCN(C)C)cc3)nc21 assay_target="B-Raf delta1-415 (Homo sapiens)" experimental_value="> 7.00"
smiles_entry=COn1c(=O)c(-c2c(Cl)cccc2Cl)cc2cnc(Nc3ccc(CCO)cc3)nc21 assay_target="B-Raf delta1-415 (Homo sapiens)" experimental_value="> 7.00"
smiles_entry=COn1c(=O)c(-c2cc(NC(=O)c3cccc(C(F)(F)F)c3)ccc2Cl)cc2cnc(Nc3ccccc3)nc21 assay_target="B-Raf delta1-415 (Homo sapiens)" experimental_value="< 6.00"
smiles_entry=COn1c(=O)c(-c2c(Cl)cccc2Cl)cc2cnc(Nc3ccc(N4CCN(S(C)(=O)=O)CC4)cc3)nc21 assay_target="B-Raf delta1-415 (Homo sapiens)" experimental_value="> 6.30"
smiles_entry=COn1c(=O)c(-c2c(F)cccc2Cl)cc2cnc(Nc3ccc(OCCN(C)C)cc3)nc21 assay_target="B-Raf delta1-415 (Homo sapiens)" experimental_value="> 7.00"
